Sourced from PubChem BioAssay (NCI)

- System: A549 NSCLC
- experiment-summary: NCI tumour cell line growth inhibition, 48 h
Could you please report measured TGI for the items listed next?
One number for each entry, in µM.

molecule	metric-name	unit-annotation	result-number
CCCCCC(=O)O[C@]1(C(C)=O)CCC2C3CCC4=CC(=O)CC[C@]4(C)C3CC[C@@]21C (some centres undefined)	TGI	µM	15.9

Continue with the next molecule.
Given the entry "O=S(=O)(/N=C(\NO)Nc1ccc(Cl)cc1)c1cc(C(F)(F)F)cc(C(F)(F)F)c1" , report its measured TGI.
34.5

----------
- Tested on: MDA-MB-435
- experiment-summary: NCI tumour cell line growth inhibition, 48 h
Could you please report measured TGI for the items listed next?

molecule	TGI
O=c1[nH]c(N/N=C\C(O)C(O)C(O)C(O)CO)nc2ccccc12 (stereo not given)	> 100 µM
Cc1ccc(NC(=O)c2cc(S(=O)(=O)Nc3nnc(-c4ccccc4)c(-c4ccccc4)n3)c(SCc3ccccc3)cc2Cl)cc1	35 µM
CSC(=O)/C=C1\SS/C(=C\C(=O)SC)S1	7.08 µM
CCC(c1ccccc1)c1noc(CCN(CC)CC)n1 (stereo not given)	> 78.8 µM
COC(=O)[C@@H]1CO[C@H](C(C)(C)C)N1C(=O)N1C=CC(=O)C[C@H]1C	> 100 µM
CN1C(=O)CC(=O)N1/C(=C/c1ccccc1)c1ccccc1	> 100 µM

Kindly give each listed record's TGI.
1. CC(N)(CC(O)(C(F)(F)Cl)C(F)(F)Cl)C(=O)O (stereo not given)
2. CSc1nc2nc(-c3ccccc3)c(C)c-2c2n1C(C)C(=O)N2 (stereo not given)
3. CN=c1sc2c(n1C)C(=O)c1ccccc1C2=O
4. C=CCN(CC=C)C(=O)c1cc(C)nc2c1c(=O)n(-c1ccccc1)c(=O)n2CCCN1CCN(c2ccccc2OC)CC1

["> 10 µM", "> 100 µM", "0.374 µM", "> 50 µM"]

----------
- Tested on: MCF7 breast
- experiment-summary: NCI tumour cell line growth inhibition, 48 h; in the data active = GI50 below about 0.43 µM; inactive = the rest
Valid outcomes are listed here; reply with one: active, inactive

compound	assigned-category
COc1ccccc1Oc1nccc(-c2c(-c3ccc(F)cc3)ncn2C2CCNCC2)n1	inactive

Then there is this compound:
Which outcome was entered for the compound "COc1ccc(-c2cc(/C=C/C(=O)c3ccc(N)cc3)[nH]n2)cc1OC" in this test?
inactive

----------
- Test system: COLO 205 colon
- experiment-summary: NCI tumour cell line growth inhibition, 48 h
Could you please report measured TGI for the items listed next?

Below: 3 compounds and their reported TGI.
compound	target-system	result
CC(C)[C@@H]1CC[C@]2(CO2)[C@@H]2C(=O)OCC(C(=O)O)=C[C@H]21	COLO 205 colon	> 57.7 µM
CCCCCCCCOCC(COC(=O)CCCCCCC)OC(=O)CCCCCCC (stereo not given)	COLO 205 colon	> 100 µM
O=C1c2cc(O)c(O)cc2O[C@H](c2ccc(O)c(O)c2)[C@H]1O	COLO 205 colon	> 100 µM

Kindly give each listed record's TGI.
1. COC(=O)[C@@]12OC[C@]34C([C@@H](O)C1O)[C@@]1(C)CC(=O)C(OC(=O)CC(C)C(F)(F)F)=C(C)C1C[C@H]3OC(=O)[C@H](O)[C@H]42 (stereo not given in full)
2. Cc1nc2sc3cccc(Cl)c3n2c(=O)c1N=Nc1ccc(Cl)cc1
3. COc1cc(/C=C/c2cc(/C=C/c3ccc(O)c(OC)c3)n(C(=O)c3ccccc3Br)n2)ccc1O
4. CCOC(=O)C1(C)CCC(C(C(=O)O)C(=O)O)CC1=O (stereo not given)
5. CSc1nncc(-c2cc3c(c(SC)n2)CCCC3)n1
6. COc1cc(-c2nccc3[nH]c(-c4ccc5cc[nH]c5c4)nc23)cc(OC)c1OC
7. O=c1[nH]c(N/N=C\C(O)C(O)C(O)C(O)CO)nc2ccccc12 (stereo not given)
8. NCCOc1cccc(C2(N3CCCCC3)CCCCC2)c1

1: 30 µM; 2: > 100 µM; 3: 4.63 µM; 4: > 100 µM; 5: > 100 µM; 6: < 0.01 µM; 7: > 100 µM; 8: 26 µM

Kindly give each listed record's TGI.
1. COc1cc(C2c3cc4c(cc3OC(NN)C2C)OCO4)cc(OC)c1O (stereo not given)
2. COC(CN(C)C(=S)Nc1cccc2ccccc12)OC
3. S=C1Cc2c(-c3ccccc3)cc(-c3cccc(Cl)c3)nc2-c2ccccc2N1
4. CCOC(=O)C1(C/C=C\CBr)CCCC1=O (stereo not given)
5. CC(C)C(Cl)CCC(C)(Cl)C(=O)CBr (stereo not given)
6. CC(SC(=S)N1CCOCC1)C(=O)Nc1nnc(-c2ccc(Cl)cc2)o1 (stereo not given)

40.4 µM
> 10 µM
> 100 µM
> 100 µM
12 µM
> 100 µM

Kindly give each listed record's TGI.
1. O=C(c1ccccc1)[C@H]1Nc2ccc(Cl)cc2[C@H]2CCC[C@@H]12
2. Cc1cc(Br)c(NC(=O)c2c(-c3c(Cl)cccc3Cl)noc2C)c(Br)c1
3. Cn1c(CNc2ccc(-c3n[nH]c(=S)n3C)cc2)n[nH]c1=S
4. Cc1nc2ccccc2c(=O)n1/N=C(\N=Nc1ccccc1Cl)c1ccccc1Cl
5. CN=c1sc2c(n1C)C(=O)c1ccccc1C2=O
6. N#CC1CC(c2ccccc2)Nc2cc(Cl)ccc2N1 (stereo not given)
7. O=C1NC(=O)C2C(=O)NC(=O)C1C2Cc1ccco1 (stereo not given)
8. COc1ccc2nc3cc(Cl)ccc3c(NC(C)CCCN(CCCl)CCCl)c2c1 (stereo not given)

1. 91.7 µM
2. > 100 µM
3. > 100 µM
4. > 100 µM
5. 11.9 µM
6. > 83.4 µM
7. > 100 µM
8. 2.15 µM

Kindly give each listed record's TGI.
1. O=C(CCCC(=O)Nc1ccc(Cl)cc1Cl)CC(=O)c1ccc2ccccc2c1
2. Cc1cnc(C(=O)NNc2nc3sc4c(c3c(=O)[nH]2)C(C)CCC4)cn1 (stereo not given)
3. CCN1/C(=C/C#C/C(C)=C\c2sc3ccc(Cl)cc3[n+]2CC)Sc2ccc(Cl)cc21
4. O=C1CC(c2ccc(Cl)cc2)=Nc2ccccc2N1
5. Cc1ccc(OCC2OC(n3cnc4c(Cl)nc(Nc5cc(Cl)cc(Cl)c5)nc43)CC2Oc2ccc(C)cc2)cc1 (stereo not given)
6. CCCC(=O)CC(C)C(=O)C(=O)NC12CC3CC(CC(C3)C1)C2 (stereo not given)

> 100 µM
13.4 µM
3.21 µM
> 100 µM
> 100 µM
> 100 µM

----------
Could you please report measured TGI for the items listed next?
- System: MCF7 breast
- experiment-summary: NCI tumour cell line growth inhibition, 48 h
Give bare numbers, in µM.

Below: 3 molecules and their reported TGI.
molecule	unit-annotation	TGI
COc1ccc(-c2cc(/C=C/C(=O)c3ccc(N)cc3)[nH]n2)cc1OC	µM	8.48
CCSCC1CC(O)(c2ccccc2)C(c2ccccc2)C(c2ccc(F)cc2)O1 (stereo not given)	µM	6.81
Cc1cc(N(CCC#N)CCC#N)ccc1/C(N=Nc1ccccc1)=N\NC(=O)c1cc(Cl)ccc1O	µM	67.9

Continue with the next molecule.
Given the entry "COc1ccc(Nc2cnc3cc(N)cc(N)c3n2)cc1" , report its measured TGI.
40.9

----------
- Tested on: SN12C renal
- experiment-summary: NCI tumour cell line growth inhibition, 48 h
metric-name: TGI

molecule	result
C1CSCCSCCCS[C@@H]2CCCCC2SC1 (stereo partly specified)	> 100 µM
CSC(=O)/C=C1\SS/C(=C\C(=O)SC)S1	3.79 µM
Cc1cc(Cl)nc(N(CCNc2ccnc3cc(Cl)ccc23)Cc2ccco2)n1	3.95 µM
C[C@@H]1CC[C@]2(C)C3(C)CC[C@]2(OC3=O)[C@@]12CC(c1ccoc1)OC2=O (stereo partly specified)	95.5 µM
O=C(NCCc1ccccc1)C1C(=O)C(=O)N(CCc2ccccc2)C1=O (stereo unspecified)	> 100 µM
O=C(O)CN(CCN(CC(=O)O)CC(=O)O)CC(=O)O.[Mn+2]	> 100 µM
CC1NOC(=O)C1N=Nc1ccc(Cl)cc1Cl (stereo unspecified)	49.1 µM
COc1ccc(OC)c2sc(N3C(=O)/C(=C/c4cccc(Oc5ccccc5)c4)N=C3c3ccccc3)nc12	> 100 µM
CCN(CC)CCNc1ccc2ncn3c4ccc(O)cc4c(=O)c1c23	15.1 µM
O=C(NCCN(CCNC(=O)c1cccc(O)c1O)CCNC(=O)c1cccc(O)c1O)c1cccc(O)c1O	> 100 µM

Continue with the next molecule.
Given the entry "COc1ccc(CCCCNCc2cccc(CNCCCCc3ccc(OC)cc3)c2)cc1" , report its measured TGI.
3.64 µM

----------
Could you please report measured TGI for the items listed next?
- Tested on: OVCAR-4 ovarian
- experiment-summary: NCI tumour cell line growth inhibition, 48 h

compound	result
Cc1noc(NC(=O)Nc2ccccc2F)c1C#N	> 100 µM
COc1ccccc1CNCCN1C(=O)c2ccc3c4c(ccc(c24)C1=O)C(=O)N(CCNCc1ccccc1OC)C3=O	0.261 µM
CCOC(=O)c1c2c(n(-c3ccc(C)cc3)c1C)-c1ccccc1C(=O)C2(C(=O)OCC)C(=O)OCC	> 100 µM
COC(=O)/C=C(\C(=O)OC)c1cc(C)c2cc(C(C)C)ccc(C)c1-2	> 100 µM
COc1ccc(-c2oc3cc(-c4cc5oc(-c6ccc(OC)cc6)c(-c6ccc(OC)cc6)c5cc4OC)c(OC)cc3c2-c2ccc(OC)cc2)cc1	> 100 µM

Kindly give each listed record's TGI.
1. COc1ccc2nc3cc(Cl)ccc3c(NC(C)CCCN(CCCl)CCCl)c2c1 (centres undefined)
2. COc1ccc(/C=C2\CCC/C(=C\c3ccc(OC)c(OC)c3)C2=O)cc1OC
3. COC(=O)c1c(C)cccc1/C=C1\Cc2ccc(C)c(C)c2C1=O
4. Cc1cccc(Cn2cc(CO)c3cnccc32)c1

["4.33 µM", "> 32.5 µM", "> 100 µM", "> 100 µM"]
